B1: library; a variant is named by its letters at X, in order (parent)
chain: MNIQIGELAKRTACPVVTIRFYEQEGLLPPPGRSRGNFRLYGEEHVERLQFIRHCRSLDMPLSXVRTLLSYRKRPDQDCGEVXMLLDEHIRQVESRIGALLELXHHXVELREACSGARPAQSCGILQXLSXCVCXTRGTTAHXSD

Variants of: B1
Test: sfGFP reporter fluorescence (15 h) (µM FITC); higher = higher leak
Settings: library round: Round 3; ligand: none
// sfGFP reporter fluorescence lookup, one value per entry
Please reply with the value in numeric form only.

# Variant name, sfGFP reporter fluorescence
rows = [
    ("DSKLGMAP V108L", 0.043),
    ("DTKLGSRP V108L", 0.0395),
    ("KITLGDDR H106A", 0.046),
    ("KTVLIDDP P61T", 0.0467),
    ("DNKCMDAK P61D", 0.53),
    ("LIKCGAAP H54C C55P H106L", 0.0448),
    ("DSKLGNRA Q121A", 0.044),
    ("DTKLGCDL Q121A", 0.0413),
    ("DNKCMDAK P61N", 2.25),
    ("LNKCGAAP H54C C55P H106L", 0.0467),
]

--- query ---
Any idea what its sfGFP reporter fluorescence is? The variant is DNVCMDDP Y41F P61N
0.828
